Data provenance is the supplement of paper PMC8728848.

Target: Neu5Ac9Ac(a2-3)Gal(b1-3)GlcNAc
Assay: glycan array binding signal (z-score within array); higher = stronger binding
Settings: glycan notation: IUPAC condensed, linker removed
The full list was thinned out, with the strongest signals kept by preference.
List of glycan array binding signal (z-score) values.
// no unit, no text: just the number

Below, each entry is followed by its recorded glycan array binding signal (z-score) result.
Eosinophil-derived neurotoxin (EDN) (Homo sapiens), P10153 (protein) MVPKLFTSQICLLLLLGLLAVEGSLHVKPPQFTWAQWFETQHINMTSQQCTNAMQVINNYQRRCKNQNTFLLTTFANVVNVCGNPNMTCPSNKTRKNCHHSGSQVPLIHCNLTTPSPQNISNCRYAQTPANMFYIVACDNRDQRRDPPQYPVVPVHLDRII: -0.207
Epa21 (Candida glabrata) (protein) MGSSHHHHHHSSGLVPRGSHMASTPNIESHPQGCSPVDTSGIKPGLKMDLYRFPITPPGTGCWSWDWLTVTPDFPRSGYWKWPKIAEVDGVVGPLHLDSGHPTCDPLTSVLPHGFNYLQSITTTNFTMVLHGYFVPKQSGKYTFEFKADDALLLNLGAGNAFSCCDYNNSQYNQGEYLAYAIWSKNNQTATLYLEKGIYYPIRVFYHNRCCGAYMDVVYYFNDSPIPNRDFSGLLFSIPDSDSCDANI: -0.318
PEB1 (Campylobacter jejuni), Q0P9X8 (protein) MVFRKSLLKLAVFALGACVAFSNANAAEGKLESIKSKGQLIVGVKNDVPHYALLDQATGEIKGFEVDVAKLLAKSILGDDKKIKLVAVNAKTRGPLLDNGSVDAVIATFTITPERKRIYNFSEPYYQDAIGLLVLKEKKYKSLADMKGANIGVAQAATTKKAIGEAAKKIGIDVKFSEFPDYPSIKAALDAKRVDAFSVDKSILLGYVDDKSEILPDSFEPQSYGIVTKKDDPAFAKYVDDFVKEHKNEIDALAKKWGL: -0.504

Lab note: next binder to report on.
// field: glycan array binding signal (z-score); key: PGP3 (Chlamydia trachomatis), P0CE18 (protein) MGNSGFYLYNTQNCVFADNIKVGQMTEPLKDQQIILGTTSTPVAAKMTASDGISLTVSNNPSTNASITIGLDAEKAYQLILEKLGDQILGGIADTIVDSTVQDILDKITTDPSLGLLKAFNNFPITNKIQCNGLFTPRNIETLLGGTEIGKFTVTPKSSGSMFLVSADIIASRMEGGVVLALVREGDSKPYAISYGYSSGVPNLCSLRTRIINTGLTPTTYSLRVGGLESGVVWVNALSNGNDILGITNTSNVSFLEVIPQTNA ; value = 2.73
